Target: T1, CD134 expressed on the cell surface of HT1080_OX40 cells (human, UniProt P43489 29-277); further: test concentration or dose not given here
T1 sequence (looked up): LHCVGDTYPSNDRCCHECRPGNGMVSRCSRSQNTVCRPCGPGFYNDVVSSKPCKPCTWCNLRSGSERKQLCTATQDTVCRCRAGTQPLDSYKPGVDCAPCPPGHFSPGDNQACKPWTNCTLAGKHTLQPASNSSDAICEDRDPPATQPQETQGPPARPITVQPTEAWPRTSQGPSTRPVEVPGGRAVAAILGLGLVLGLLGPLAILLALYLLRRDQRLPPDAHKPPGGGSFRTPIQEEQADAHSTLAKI
Experiment: cell-based or functional assay
Here, each record is paired with measured Functional assay Cross-linked by F(ab′)2 fragment IL-8 data.
MEASURED PROPERTY: Functional assay Cross-linked by F(ab′)2 fragment IL-8

binder="P018.S.12.A.F06 (antibody, V domains shown, V regions on human Ig constant parts; also called AB134_82) VH: QSLEESGGDLVKPGGTLTLTCKASGIDFNNYYVCWVRQAPGKGLEWVGCIYTGSGSTYYASWAKGRFTITRSSSTTVTLQMTSLTAADTATYFCARPEFYDTYGYAGYGYATPNYFNFWGPGTLVTVSS VL: AAVLTQTPSPVSAAVGGTVTIKCQASQSVYNNNLLSWYQQKPGQPPKLLMYDASNLASGVPDRFSGSGSGTQFTLTISDLESDDAATYYCLGGYDDDADYNAFGGGTEVVVA" result="2.05 abs. corr."
binder="P018.S.11.A.H06 (antibody, V domains shown, V regions on human Ig constant parts; also called AB134_49) VH: QSLEESGGRLVTPGTPLTLTCTVSGFSLSTYAMIWVRQAPGEGPEWIGLIAGGGNTWYASWAKGRFTISKTSTTVDLKITSPTTEDTATYFCARADYLGYGNNFWGQGTLVTVSS VL: AAVLTQTPSPVSAAVGGTVTINCQASQSVYNNNYLAWYQQKPGQPPKLLIYWASNLASGVPSRFSGSGSGTQFSLTISGVQSDDAATYYCLGVYDDDADNGFGGGTEVVVK" result="1.95 abs. corr."
binder="P018.S.12.A.F02 (antibody, V domains shown, V regions on human Ig constant parts; also called AB134_78) VH: QSLEESGGRLVTPGTPLTLTCTASGFSLIKSHINWVRQAPGKGLEWVGGIAYDDNTYYANWAKGRFTISKTSTTVDLRITSPTTADTATYFCAREDSSGWGSFNLWGQGTLVTVSS VL: AQVLTQTPSSVSAAVGGTVTISCQSSQSVYATNQLSWFQQKSGQPPKRLIYSASTLASGVSSRFKGSGSGTQFTLTISGVQSDDAATYYCQGAYDCSGGDCRAFGGGTEVVVK" result="1.99 abs. corr."
